# test: Microsomal stability assay, rat liver microsomes;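 note: rat liver microsomes (0.25 mg/mL) with about 1 µM compound plus 1 mM NADPH, pH 7.4, 37 °C for 30 min, parent left measured by LC-MS/MS against 0 min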
# measurement-setup: rat liver microsomal data
reported-endpoint: RLM
Your reply should be a number followed by the unit it is expressed in.

Worked cases, RLM given:
chemical-string: CC#Cc1cccc(C[C@H](NC(=O)COC)[C@H](O)CN[C@H]2CC3(CCC3)Oc3ncc(CC(C)C)cc32)c1
RLM: 191 µL/min/mg
--
chemical-string: COCC(=O)N[C@@H](Cc1cc(F)cc(F)c1)[C@H](O)CN[C@H]1CC2(CCC2)Oc2c(-c3ccncc3)cc(C3CC3)cc21
RLM: 107 µL/min/mg

Supply RLM value. Item: CO[C@H](C)C(=O)N[C@@H](Cc1cccc(Br)c1)[C@H](O)CN[C@H]1CC2(CCC2)Oc2ncc(CC(C)C)cc21
644 µL/min/mg

====

# study-system: Beta Secretase enzyme (BACE) (Homo sapiens, UniProt P56817)
# Sequence (P56817 46-501): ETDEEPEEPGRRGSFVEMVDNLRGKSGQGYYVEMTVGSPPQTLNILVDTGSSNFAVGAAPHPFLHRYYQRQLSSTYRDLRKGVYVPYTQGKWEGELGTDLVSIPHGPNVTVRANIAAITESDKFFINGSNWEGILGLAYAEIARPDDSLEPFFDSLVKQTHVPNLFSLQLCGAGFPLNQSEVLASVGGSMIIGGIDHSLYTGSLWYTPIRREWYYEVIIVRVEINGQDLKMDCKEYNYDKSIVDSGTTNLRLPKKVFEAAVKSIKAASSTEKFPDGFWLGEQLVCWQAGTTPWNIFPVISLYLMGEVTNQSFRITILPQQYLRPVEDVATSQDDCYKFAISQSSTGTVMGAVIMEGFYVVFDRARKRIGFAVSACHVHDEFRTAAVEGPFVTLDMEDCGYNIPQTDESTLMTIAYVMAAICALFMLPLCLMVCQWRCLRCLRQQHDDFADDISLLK
# test: In vitro enzymatic BACE FRET (fluorescence resonance energy transfer) assay;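 note: fluorescence read after 1 h with 50 nM quenched peptide substrate spanning the BACE cleavage site, in pH 4.2 acetate buffer containing 10% DMSO and nonionic detergent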
# Type: biochemical
# measurement-setup: BACE enzyme assay, IC50's in uM; read-out: BACE1 FRET assay
Doc: threshold 0.006 µM (exclusive). Items with IC50 beneath it return TRUE; others return FALSE.

compound: C#Cc1cccc(C[C@H](NC(=O)COC)[C@H](O)CN[C@H]2CC3(CCC3)Oc3ncc(CC)cc32)c1 [compound 842]
group-label: FALSE

compound: COC(OC)C(=O)N[C@@H](Cc1cccc(-c2ncco2)c1)[C@H](O)CN[C@H]1CC2(CCC2)Oc2ncc(CC(C)(C)C)cc21 [Example 826]
group-label: FALSE

compound: COC(OC)C(=O)N[C@@H](Cc1cccc(-c2nccs2)c1)[C@H](O)CN[C@H]1CC2(CCC2)Oc2ncc(CC(C)C)cc21 [Example 816]
group-label: FALSE

compound: C#Cc1cc(F)cc(C[C@H](NC(=O)COC)[C@H](O)CN[C@H]2CC3(CCC3)Oc3ncc(CC(C)C)cc32)c1 [Example 856]
group-label: TRUE

Is 0.006 µM strictly greater than the compound's reported IC50? compound: C#Cc1cccc(C[C@H](NC(=O)COCC)[C@H](O)CN[C@H]2CC3(CCC3)Oc3ncc(CC(C)(C)C)cc32)c1 [Example 870]
TRUE

====

Reported pIC50 values for the following compounds.
# study-system: CYP2D6 (Homo sapiens, UniProt P10635)
# Sequence (P10635 whole entry): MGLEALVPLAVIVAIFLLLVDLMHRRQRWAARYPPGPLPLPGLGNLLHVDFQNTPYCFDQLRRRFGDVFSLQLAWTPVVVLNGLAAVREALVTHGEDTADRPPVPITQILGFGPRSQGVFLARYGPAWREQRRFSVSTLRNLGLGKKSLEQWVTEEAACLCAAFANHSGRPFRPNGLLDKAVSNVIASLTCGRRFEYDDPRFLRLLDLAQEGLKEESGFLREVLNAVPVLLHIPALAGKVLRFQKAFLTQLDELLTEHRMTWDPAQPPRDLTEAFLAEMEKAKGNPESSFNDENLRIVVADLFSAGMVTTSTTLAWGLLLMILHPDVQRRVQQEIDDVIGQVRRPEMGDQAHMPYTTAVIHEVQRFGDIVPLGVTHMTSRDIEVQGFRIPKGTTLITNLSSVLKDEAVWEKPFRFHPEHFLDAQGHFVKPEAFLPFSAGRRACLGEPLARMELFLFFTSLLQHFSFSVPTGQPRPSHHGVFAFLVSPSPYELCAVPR
# test: CYP2D6 inhibition assay (bufuralol, pooled human liver microsomes)
# measurement-setup: 2D6 IC50, CYP enzyme inhibition
# pIC50 is unitless: minus log10 of the molar concentration; print number only

Solved entries:
chemical-string: COCC(=O)N[C@@H](Cc1cccc([C@H]2CCCO2)c1)[C@H](O)CN[C@H]1CC2(CCC2)Oc2ncc(CC(C)(C)C)cc21
study-system: CYP2D6 (Homo sapiens, UniProt P10635)
reported-endpoint: pIC50
measurement: 5.09
//
chemical-string: COCC(=O)N[C@@H](Cc1ccnc(OC)c1)[C@H](O)CN[C@H]1CC2(CCC2)Oc2ncc(CC(C)(C)C)cc21
study-system: CYP2D6 (Homo sapiens, UniProt P10635)
reported-endpoint: pIC50
measurement: 5.19

Moving on to another compound below.
Fill in reported pIC50 for this entry: CCO[C@@H](C)C(=O)N[C@@H](Cc1ccc2c(c1)OCO2)[C@H](O)CN[C@H]1CC2(CCC2)Oc2ncc(CC(C)(C)C)cc21
5.47
